# Tested on: Oocyte
# protocol text: Potentiation of Wistar rat AMPA receptor expressed in Xenopus laevis oocytes assessed as 2-fold increase in amplitude of (S)-AMPA-induced current by two electrode voltage-clamp method
# Type: cell-based
observable: EC (µM)
Use µM as the unit, but write only the number.

stdin: State its EC: CC1Nc2ccc(Cl)cc2S(=O)(=O)N1 (configuration not stated)
stdout: 134

stdin: State its EC: `CCN1CN(C)S(=O)(=O)c2ncc(C)cc21`
stdout: 86

stdin: State its EC: `CCN1CNS(=O)(=O)c2ncc(C)cc21`
stdout: 116

stdin: State its EC: `Cc1cnc2c(c1)N(C)CNS2(=O)=O`
stdout: 146

stdin: State its EC: `CCN1CNS(=O)(=O)c2cc(Cl)cnc21`
stdout: 20

stdin: State its EC: `CCN1CN(C)S(=O)(=O)c2ncccc21`
stdout: 38

stdin: State its EC: `CCN1CN(C)S(=O)(=O)c2cc(Cl)cnc21`
stdout: 110

###

Exercise: for every item that follows, state its recorded EC.
# Test system: Oocyte
# protocol text: Potentiation of Wistar rat AMPA receptor expressed in Xenopus laevis oocytes assessed as 2-fold increase in amplitude of (S)-AMPA-induced current by two electrode voltage-clamp method
# Type: cell-based

stdin: # return EC of NS(=O)(=O)c1cc2c(cc1Cl)NC(C1CC3C=CC1C3)NS2(=O)=O (configuration not stated) (system: Oocyte)
stdout: 1.6 µM

stdin: # return EC of `CCN1CNS(=O)(=O)c2cc(C)cnc21` (system: Oocyte)
stdout: > 1000 µM

stdin: # return EC of `CN1CNS(=O)(=O)c2cccnc21` (system: Oocyte)
stdout: 200 µM

stdin: # return EC of `O=S1(=O)N[C@H]2CCCN2c2ccccc21` (system: Oocyte)
stdout: 24.6 µM

stdin: # return EC of `CCN1CNS(=O)(=O)c2cc(Br)ccc21` (system: Oocyte)
stdout: 29 µM

stdin: # return EC of `CN1CNS(=O)(=O)c2cc(F)cnc21` (system: Oocyte)
stdout: > 100 µM

stdin: # return EC of `CCN1CNS(=O)(=O)c2cc(F)cnc21` (system: Oocyte)
stdout: 123 µM

###

Exercise: for every item that follows, state its recorded logP.
# protocol text: Lipophilicity, log P by shake flask method
# Assay type: physicochemical
# experimental parameters: octanol/water
Returns: the value as a bare number; no unit string appended.

stdin: State its logP: `CCN1CNS(=O)(=O)c2ncc(C)cc21`
stdout: 0.41

stdin: State its logP: `CCN1CNS(=O)(=O)c2ncccc21`
stdout: 0.12

###

# Tested on: Oocyte
# protocol text: Potentiation of Wistar rat AMPA receptor expressed in Xenopus laevis oocytes assessed as 5-fold increase in amplitude of (S)-AMPA-induced current by two electrode voltage-clamp method
# Format: cell-based
Rule: EC below 100 µM gives MET, anything at or above gives NOT MET.

stdin: A record lists `CCN1CN(C)S(=O)(=O)c2ncc(C)cc21` . Is its EC below 100 µM?
stdout: NOT MET

stdin: A record lists `Cc1cnc2c(c1)N(C)CNS2(=O)=O` . Is its EC below 100 µM?
stdout: NOT MET

stdin: A record lists `CN1CNS(=O)(=O)c2cc(Cl)cnc21` . Is its EC below 100 µM?
stdout: MET

stdin: A record lists NS(=O)(=O)c1cc2c(cc1Cl)NC(C1CC3C=CC1C3)NS2(=O)=O (stereo not given) . Is its EC below 100 µM?
stdout: MET

stdin: A record lists `CN1CNS(=O)(=O)c2ncccc21` . Is its EC below 100 µM?
stdout: MET

stdin: A record lists `CCN1CNS(=O)(=O)c2cc(Cl)cnc21` . Is its EC below 100 µM?
stdout: MET

stdin: A record lists CC1Nc2ccc(Cl)cc2S(=O)(=O)N1 (stereo not given) . Is its EC below 100 µM?
stdout: NOT MET

stdin: A record lists `CCN1CNS(=O)(=O)c2cc(C)cnc21` . Is its EC below 100 µM?
stdout: NOT MET

stdin: A record lists `CCN1CN(C)S(=O)(=O)c2cc(Cl)cnc21` . Is its EC below 100 µM?
stdout: NOT MET

stdin: A record lists `CCN1CNS(=O)(=O)c2cc(C)ccc21` . Is its EC below 100 µM?
stdout: MET
